B1: tRNA (parent)
chain: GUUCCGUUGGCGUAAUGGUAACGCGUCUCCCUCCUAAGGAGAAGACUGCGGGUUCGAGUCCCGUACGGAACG

Variants of: B1
PROTOCOL TEXT: yeast fitness relative to wild type (ratio to wild type); higher = fitter; tRNA-Arg(CCU), competitive growth, 37 C, YPD
This sample holds only a part of the variants without activity.
Please mark condition met if the recorded yeast fitness is equal to or greater than 0.6, and condition not met if it falls below.

I'd appreciate it if you could say whether G44A C60G has yeast fitness at least equal to 0.6.
condition met

Hello, the source for this data is the RNAGym collection of RNA variant scans (doi:10.1126/science.aae0568), in case you need it.
